This collection of values is drawn from ChEMBL document CHEMBL1136835.

target: Cannabinoid receptor 2 (Homo sapiens); test: Agonist activity at human cloned CB2 receptor assessed as stimulation of [35S]GTPgammaS binding
Sequence (P34972 whole entry): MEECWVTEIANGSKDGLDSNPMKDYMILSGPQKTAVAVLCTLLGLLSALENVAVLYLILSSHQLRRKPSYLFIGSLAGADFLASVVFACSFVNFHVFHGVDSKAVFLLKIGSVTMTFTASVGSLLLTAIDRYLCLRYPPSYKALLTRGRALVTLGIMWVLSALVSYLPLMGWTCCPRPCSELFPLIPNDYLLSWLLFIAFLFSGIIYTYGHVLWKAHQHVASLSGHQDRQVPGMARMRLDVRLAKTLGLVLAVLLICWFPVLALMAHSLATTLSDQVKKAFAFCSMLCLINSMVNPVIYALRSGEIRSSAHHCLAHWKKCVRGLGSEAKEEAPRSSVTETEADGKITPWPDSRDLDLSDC
List of pEC50 values.
Remember, pEC50 is on a log scale: it is -log10 of the molar concentration.

Examples with their reported pEC50 follow.
Cc1ccc(-c2n[nH]c(CC(C)(C)C)n2)cc1S(=O)(=O)N1CCOCC1 = 7.19
Cc1ccc(NC(=O)C2C(C)(C)C2(C)C)cc1S(=O)(=O)N1CCOCC1 = 7.96
Cc1ccc(-c2c[nH]c(C(C)(C)C)n2)cc1S(=O)(=O)N1CCOCC1 = 6.89
Cc1ccc(-c2cc(CC3CCCCC3)[nH]n2)cc1S(=O)(=O)N1CCOCC1 = 6.72
Cc1ccc(-c2nnn(CC(C)(C)C)n2)cc1S(=O)(=O)N1CCOCC1 = 7.31

Prompt line: Please tell me: pEC50 of Cc1ccc(-c2nc(CC(C)(C)C)c[nH]2)cc1S(=O)(=O)N1CCOCC1 , system Cannabinoid receptor 2 (Homo sapiens)?
Response line: 7.33

Prompt line: // fetch Cannabinoid receptor 2 (Homo sapiens) pEC50 for Cc1ccc(-c2cc(C(C)(C)C)[nH]n2)cc1S(=O)(=O)N1CCOCC1
Response line: 6.89

Prompt line: So what pEC50 did Cc1ccc(NC(=O)C2(C)CCCCC2)cc1S(=O)(=O)N1CCOCC1 get with Cannabinoid receptor 2 (Homo sapiens)?
Response line: 7.48

Prompt line: Under Cannabinoid receptor 2 (Homo sapiens): pEC50 value of Cc1ccc(NC(=O)c2cccc(Cl)c2)cc1S(=O)(=O)N1CCOCC1 ?
Response line: 6.66

Prompt line: Give the reported pEC50 for Cc1ccc(-c2nc(CC(C)(C)C)cs2)cc1S(=O)(=O)N1CCOCC1 (system: Cannabinoid receptor 2 (Homo sapiens)).
Response line: 7.64

Prompt line: Lab request: please report pEC50 under test system Cannabinoid receptor 2 (Homo sapiens) for Cc1ccc(-c2noc(CC(C)(C)C)n2)cc1S(=O)(=O)N1CCOCC1
Response line: 7.15

Prompt line: Return pEC50 measured with Cannabinoid receptor 2 (Homo sapiens) given this compound: Cc1ccc(NC(=O)c2ccccc2Cl)cc1S(=O)(=O)N1CCOCC1
Response line: 6.41

Prompt line: Quick check: pEC50 on Cannabinoid receptor 2 (Homo sapiens), item Cc1ccc(NC(=O)C(C)(C(F)(F)F)C(F)(F)F)cc1S(=O)(=O)N1CCOCC1 ?
Response line: 7.54

Prompt line: Enter reported pEC50 observed with Cannabinoid receptor 2 (Homo sapiens) for Cc1ccc(C(=O)N[C@H]2C(C)(C)[C@@H]3CC[C@@]2(C)C3)cc1S(=O)(=O)N1CCOCC1
Response line: 7.60

Prompt line: Provide value of pEC50 for this record tested with Cannabinoid receptor 2 (Homo sapiens): Cc1ccc(-c2n[nH]c(CC3CCCCC3)n2)cc1S(=O)(=O)N1CCOCC1
Response line: 7.24

Prompt line: Lab note: need pEC50 with Cannabinoid receptor 2 (Homo sapiens) for entry Cc1ccc(NC(=O)C2CCCCC2(C)C)cc1S(=O)(=O)N1CCOCC1 (stereo not given) , please look it up.
Response line: 5.08

Prompt line: # query: pEC50 | item Cc1ccc(-c2noc(CC3CCCCC3)n2)cc1S(=O)(=O)N1CCOCC1 | system: Cannabinoid receptor 2 (Homo sapiens)
Response line: 6.96

Prompt line: Lookup: pEC50 / Cannabinoid receptor 2 (Homo sapiens) / Cc1ccc(C(=O)N[C@@H]2C(C)(C)[C@@H]3CC[C@@]2(C)C3)cc1S(=O)(=O)N1CCOCC1
Response line: 8.34

Prompt line: So what pEC50 did Cc1ccc(-c2nc(C(C)(C)C)c[nH]2)cc1S(=O)(=O)N1CCOCC1 get with Cannabinoid receptor 2 (Homo sapiens)?
Response line: 7.24

Prompt line: // map Cc1ccc(NC(=O)C2CCCCC2C)cc1S(=O)(=O)N1CCOCC1 (stereo not given) to recorded pEC50 (system: Cannabinoid receptor 2 (Homo sapiens))
Response line: 7.38
